Target Entity: second (BD2: amino acids E352-E168) bromodomain of BRD4 (Homo sapiens, UniProt O60885)
Construct: protocol
Experiment Description: TR-FRET bromodomain binding assay, BRD4 BD2
Details: TR-FRET assay protocol (A-G, compound concentration range); Ki calculated from IC50, probe Kd and probe concentration; read-out: TR-FRET Binding Ki: BRD4 (BDII_E352-M457)
Assign Ki to each entry below.
Answers are plain numbers, in nM.

Hi! Can you tell me Ki for each of these molecules?
1. Cn1nc(-c2ccccc2Oc2ccc(C(F)(F)F)cc2)ccc1=O
2. CCOc1cc(=O)n(C)cc1-c1cc(NS(=O)(=O)c2ccc(OC(F)(F)F)cc2)ccc1Oc1ccc(F)cc1F
3. CNS(=O)(=O)Nc1ccc(Oc2ccccc2)c(-c2ccc(=O)n(C)c2)c1

Resp:
10400
65.9
48

Hi! Can you tell me Ki for each of these molecules?
1. CCS(=O)(=O)Nc1ccc(Oc2ccc(F)cc2F)c(-c2cn(C)c(=O)cc2OCCC(C)(C)O)c1
2. COc1cc(=O)n(C)cc1-c1cc(NS(C)(=O)=O)ccc1Oc1ccccc1

Resp:
1: 14.3; 2: 9.41

----------
Target Entity: first (BD1: amino acids K57-E168) bromodomain of BRD4 (Homo sapiens)
Construct: His-tagged first (BD1: amino acids K57-E168)
Experiment Description: TR-FRET bromodomain binding assay, BRD4 BD1
Details: TR-FRET assay protocol (A-G, compound concentration range); Ki calculated from IC50, probe Kd and probe concentration; read-out: TR-FRET Binding Ki: BRD4 (BDI_K57-E168)
pKi: −log10 of the molar value.
pKi vs 6: at or above is 1, below is 0.

Req: State whether the measured pKi reaches 6, counting equality as reaching it, for `CNS(=O)(=O)c1ccc(-c2cc(=O)n(C)nc2-c2ccccc2Oc2ccccc2)cc1`
Resp: 0

Req: State whether the measured pKi reaches 6, counting equality as reaching it, for `Cn1nc(-c2ccccc2Oc2ccccc2)c(-c2ccc(NCCN3CCOCC3)nc2)cc1=O`
Resp: 1

Req: State whether the measured pKi reaches 6, counting equality as reaching it, for `Cn1nc(-c2ccccc2-c2ccccc2)ccc1=O`
Resp: 0

----------
Target Entity: first (BD1: amino acids K57-E168) bromodomain of BRD4 (Homo sapiens, UniProt O60885)
Construct: His-tagged first (BD1: amino acids K57-E168)
Experiment Description: TR-FRET bromodomain binding assay, BRD4 BD1
Details: TR-FRET assay protocol (A-G, compound concentration range); Ki calculated from IC50, probe Kd and probe concentration; read-out: TR-FRET Binding Ki: BRD4 (BDI_K57-E168)
pKi: −log10 of the molar value.
pKi vs 7: at or above is 1 (yes), below is 0 (no).

Entry Smiles: COc1cc(=O)n(C)cc1-c1cc(NS(C)(=O)=O)ccc1Oc1ccc(F)cc1F
Target Entity: first (BD1: amino acids K57-E168) bromodomain of BRD4 (Homo sapiens, UniProt O60885)
Assigned Label: 1 (yes)

Entry Smiles: CC(C)Cc1ccc(-c2cc(=O)n(C)nc2-c2ccccc2Oc2ccccc2)cc1
Target Entity: first (BD1: amino acids K57-E168) bromodomain of BRD4 (Homo sapiens, UniProt O60885)
Assigned Label: 0 (no)

Entry Smiles: Cn1cc(-c2cc(NC(=O)CNC(=O)OC(C)(C)C)ccc2Oc2ccccc2)ccc1=O
Target Entity: first (BD1: amino acids K57-E168) bromodomain of BRD4 (Homo sapiens, UniProt O60885)
Assigned Label: 0 (no)

Entry Smiles: CCS(=O)(=O)Nc1ccc(Oc2ccc(F)cc2F)c(-c2cn(C)c(=O)cc2OC2CCN(C(=O)OC(C)(C)C)CC2)c1
Target Entity: first (BD1: amino acids K57-E168) bromodomain of BRD4 (Homo sapiens, UniProt O60885)
Assigned Label: 0 (no)

Next, consider the following molecule.
Req: State whether the measured pKi reaches 7, counting equality as reaching it, for `Cn1nc(-c2ccccc2Oc2ccccc2)c(-c2ccc3nsnc3c2)cc1=O`
Resp: 0 (no)
